The measured values listed here are drawn from PubChem BioAssay (NCI).

- Test system: SN12C renal
- measurementNotes: NCI tumour cell line growth inhibition, 48 h
Where a SMILES comes first, the peptide text is derived from it.
Property: GI50; scope: individual compounds
readoutName: GI50

compound=COc1ccc(/C=C/C(=O)Nc2cc(/C=C\c3cc(OC)c(OC)c(OC)c3)cc(OC)c2OC)cc1OC testedtarget="SN12C renal" readoutname=GI50 reportedresult="3.96 µM"
compound="CCC(C)C1NC(=O)C(CCCCN)NC(=O)C(CCCCN)NC(=O)C(CC(C)C)NC(=O)C(CCCCN)NC(=O)C(C(C)CC)NC(=O)C(C(C)C)NC(=O)C(C(C)CC)NC(=O)C(CCCCN)NC(=O)C(CCCCN)NC(=O)C(C)NC(=O)C(CCCCN)NC(=O)C(CC(C)C)NC1=O (configuration not stated) (cyclo(AKKIVIKLKKILK); configuration not given here)" testedtarget="SN12C renal" readoutname=GI50 reportedresult="1.94 µM"
compound=COc1ccc(/C=C(/C(=O)N2CCCCC2)c2cc(OC)c(OC)c(OC)c2)cc1 testedtarget="SN12C renal" readoutname=GI50 reportedresult="4.52 µM"
compound="COC(=O)C(C)NP(=O)(OCc1ccc(Cn2cnc3c(N)ncnc32)cc1)Oc1ccccc1 (configuration not stated)" testedtarget="SN12C renal" readoutname=GI50 reportedresult="73.4 µM"
compound=Cn1cc(C2=C(n3ccc4ccccc43)C(=O)NC2=O)c2ccccc21 testedtarget="SN12C renal" readoutname=GI50 reportedresult="> 25 µM"
compound=CC[N-]c1nnnn1CC.[Au+].c1ccc([PH+](c2ccccc2)c2ccccc2)cc1 testedtarget="SN12C renal" readoutname=GI50 reportedresult="1.65 µM"
compound=O=Cc1cn(Cc2ccccc2)c2ccccc12 testedtarget="SN12C renal" readoutname=GI50 reportedresult="49.2 µM"
compound="COc1ccc(C2NC(=O)c3cc4c(cc3N2)OCO4)cc1 (configuration not stated)" testedtarget="SN12C renal" readoutname=GI50 reportedresult="0.481 µM"
compound=O=S(=O)(Nc1ccc2ccccc2c1)N1CCCCC1 testedtarget="SN12C renal" readoutname=GI50 reportedresult="13.2 µM"
compound=CCNC(=O)N1CCc2c(Cl)c3c(c(OC)c2[C@@H]1[C@H]1OCc2c1ccc(OC)c2OC)OCCO3 testedtarget="SN12C renal" readoutname=GI50 reportedresult="7.1 µM"
compound=Cn1cc(-c2csc(-c3c[nH]c4ccccc34)n2)c2cccnc21 testedtarget="SN12C renal" readoutname=GI50 reportedresult="1.47 µM"
compound="COC(=O)c1ccc(C2SC(C)C(=O)N2NC(=O)C(O)c2ccccc2)cc1 (configuration not stated)" testedtarget="SN12C renal" readoutname=GI50 reportedresult="> 100 µM"
